Reference for the values: patent US20230075765A1

target: EGFR (T790M L858R) (Homo sapiens, UniProt P00533, L858R/T790M); construct: purchased Invitrogen PR8911A; assay: Kinase inhibition, mobility shift assay; assay type: biochemical; details: compound concentration 2 nM
Sequence (P00533 25-1210 T790M/L858R): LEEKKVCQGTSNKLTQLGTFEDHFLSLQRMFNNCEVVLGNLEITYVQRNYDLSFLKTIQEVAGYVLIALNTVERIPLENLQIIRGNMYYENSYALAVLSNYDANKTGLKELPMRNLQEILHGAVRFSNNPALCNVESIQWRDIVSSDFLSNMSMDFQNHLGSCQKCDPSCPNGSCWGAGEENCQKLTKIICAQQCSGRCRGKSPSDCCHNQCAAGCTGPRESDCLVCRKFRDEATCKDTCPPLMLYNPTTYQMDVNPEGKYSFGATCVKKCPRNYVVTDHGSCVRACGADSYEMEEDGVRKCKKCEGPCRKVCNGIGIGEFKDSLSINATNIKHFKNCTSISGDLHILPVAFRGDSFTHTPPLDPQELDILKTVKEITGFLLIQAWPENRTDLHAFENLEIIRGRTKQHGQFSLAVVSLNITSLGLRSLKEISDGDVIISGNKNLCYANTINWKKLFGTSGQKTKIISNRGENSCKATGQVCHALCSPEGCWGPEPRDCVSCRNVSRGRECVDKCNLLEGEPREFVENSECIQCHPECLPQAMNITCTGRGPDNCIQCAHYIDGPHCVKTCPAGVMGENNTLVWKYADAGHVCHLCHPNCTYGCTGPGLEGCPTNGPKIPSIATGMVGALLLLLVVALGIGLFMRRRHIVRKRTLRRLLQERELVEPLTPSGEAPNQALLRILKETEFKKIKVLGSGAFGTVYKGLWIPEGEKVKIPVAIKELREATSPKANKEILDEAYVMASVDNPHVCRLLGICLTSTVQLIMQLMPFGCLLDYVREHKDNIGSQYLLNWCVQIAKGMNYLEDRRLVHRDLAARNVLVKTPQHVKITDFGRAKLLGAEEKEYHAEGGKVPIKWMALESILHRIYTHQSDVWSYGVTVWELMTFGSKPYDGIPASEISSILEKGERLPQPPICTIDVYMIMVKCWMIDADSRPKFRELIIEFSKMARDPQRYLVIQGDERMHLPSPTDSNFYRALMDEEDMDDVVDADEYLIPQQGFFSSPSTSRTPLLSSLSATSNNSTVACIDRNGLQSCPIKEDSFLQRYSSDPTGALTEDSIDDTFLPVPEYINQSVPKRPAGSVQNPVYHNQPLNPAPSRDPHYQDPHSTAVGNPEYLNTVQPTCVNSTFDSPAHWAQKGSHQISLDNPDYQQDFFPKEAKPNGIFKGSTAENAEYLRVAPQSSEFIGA
propertyName: Single-concentration inhibitory activity against EGFR T790M L858R, Mean (100% inhibition)

Worked cases, answers included:
molecule: C=CC(=O)Nc1cccc(Oc2nc(Nc3ccc(N4CCN(C)CC4)c([N+](=O)[O-])c3)nc3c2ccn3COC(=O)C(C)(C)C)c1 [Compound 7]
unitsOfMeasure: % inhibition
reportedMeasurement: 3.5
//
molecule: C=CC(=O)Nc1cccc(Oc2nc(Nc3ccc(N4CCN(C)CC4)c([N+](=O)[O-])c3)nc3[nH]ccc23)c1 [Compound 5]
unitsOfMeasure: % inhibition
reportedMeasurement: 49
//
molecule: C=CC(=O)Nc1cccc(Oc2nc(Nc3ccc(N4CCN(C)CC4)c(N)c3)nc3[nH]ccc23)c1 [Compound 6]
unitsOfMeasure: % inhibition
reportedMeasurement: 36

1: C=CC(=O)Nc1cccc(Oc2nc(Nc3ccc(N4CCN(C)CC4)c(OC)c3)nc3[nH]ccc23)c1 [Compound 4]
2: C=CC(=O)Nc1cccc(Oc2nc(Nc3ccc(N4CCN(C)CC4)c(I)c3)nc3c2ccn3COC(=O)C(C)(C)C)c1 [Compound 9]
3: C=CC(=O)Nc1cccc(Oc2nc(Nc3ccc(N4CCN(C)CC4)c(N)c3)nc3c2ccn3COC(=O)C(C)(C)C)c1 [Compound 8]
4: C=CC(=O)Nc1cccc(Oc2nc(Nc3ccc(N4CCN(C)CC4)c(Cl)c3)nc3[nH]ccc23)c1 [Compound 2]
Order these by Single-concentration inhibitory activity against EGFR T790M L858R, Mean (100% inhibition), descending, and give the full ranking. Form entry: labels listed in requested order.
4, 1, 3, 2
